What Population Membrane Permeable-Phenotype (%) was measured for each of the following?
Test system: HEK-293T
Test: Multiplex assay against HEK293T
Assay type: toxicity, cell-based
Conditions: human, 48 h, 1 µM, compound concentration 1 uM, replicate 1
Answer with the value and then the unit.

stdin: Would you kindly share the measured Population Membrane Permeable-Phenotype (%) for "CCCc1cc(C)[nH]c(=O)c1CNC(=O)c1cc(-c2ccc(N3CCN(C(C)C)CC3)nc2)cc2c1cnn2C(C)C" ?
stdout: 0%

stdin: Would you kindly share the measured Population Membrane Permeable-Phenotype (%) for "CC(C)[C@H](CO)Nc1nc(Nc2cccc(Cl)c2)c2ncn(C(C)C)c2n1" ?
stdout: 3%

stdin: Would you kindly share the measured Population Membrane Permeable-Phenotype (%) for "CN(c1cc(C(F)(F)F)nc(OCCC(=O)O)n1)c1cccc2c1CCC2" ?
stdout: 1%

stdin: Would you kindly share the measured Population Membrane Permeable-Phenotype (%) for "CC(C)c1cc(Nc2nc(N3CCC[C@H](N)C3)ncc2C(N)=O)cc(C(C)C)n1" ?
stdout: 2%

stdin: Would you kindly share the measured Population Membrane Permeable-Phenotype (%) for "Cc1ccc(S(=O)(=O)NC2c3ccccc3Oc3ccccc32)cc1" ?
stdout: 2%

stdin: Would you kindly share the measured Population Membrane Permeable-Phenotype (%) for CCCCCNC(=N)N/N=C/c1c[nH]c2ccc(OC)cc12.O=C(O)/C=C\C(=O)O [TEGASEROD MALEATE] ?
stdout: 0%

stdin: Would you kindly share the measured Population Membrane Permeable-Phenotype (%) for CN1C(=O)[C@@H](NC(=O)c2cc3ccccc3[nH]2)N=C(c2ccccc2)c2ccccc21 [DEVAZEPIDE] ?
stdout: 6%

stdin: Would you kindly share the measured Population Membrane Permeable-Phenotype (%) for "N#Cc1cccc(C(=O)Nc2cc(-c3ccccc3)nn2-c2ccccc2)c1" ?
stdout: 4%

stdin: Would you kindly share the measured Population Membrane Permeable-Phenotype (%) for "Oc1cccc(-c2nc(N3CCOCC3)c3oc4ncccc4c3n2)c1" ?
stdout: 9%

----------
System: U2OS
Assay: Multiplex assay against U2OS
Type: toxicity, cell-based
Conditions: human, 12 h, 10 µM, compound concentration 10 uM, replicate 1
What Population Apoptotic (%) was measured for each of the following?
Answer with the value and then the unit.

stdin: Would you kindly share the measured Population Apoptotic (%) for "c1ccc(-c2oc3ncnc(NC[C@@H]4CCCO4)c3c2-c2ccccc2)cc1" ?
stdout: 78%

stdin: Would you kindly share the measured Population Apoptotic (%) for "CN(c1cc(C(F)(F)F)nc(OCCC(=O)O)n1)c1cccc2c1CCC2" ?
stdout: 23%

stdin: Would you kindly share the measured Population Apoptotic (%) for "CCCCN(CC)c1nc(C)nc2c1c(C)cn2-c1c(C)cc(C)cc1C.Cl" ?
stdout: 65%

stdin: Would you kindly share the measured Population Apoptotic (%) for "NC(=O)c1ccc2nc(-c3ccc(C4(N)CCC4)cc3)c(-c3ccccc3)n2n1" ?
stdout: 66%

stdin: Would you kindly share the measured Population Apoptotic (%) for CN1C(=O)[C@@H](NC(=O)c2cc3ccccc3[nH]2)N=C(c2ccccc2)c2ccccc21 [DEVAZEPIDE] ?
stdout: 52%

----------
Tested on: HEK-293T
Test: Multiplex assay against HEK293T
Assay type: toxicity, cell-based
Details: human, 24 h, 1 µM, compound concentration 1 uM, replicate 1
What Population Membrane Permeable-Phenotype (%) was measured for each of the following?
Respond numerically; units are % and should not be typed.

stdin: Param readout= Population Membrane Permeable-Phenotype (%); system= HEK-293T; entry= "CCCCN(CC)c1nc(C)nc2c1c(C)cn2-c1c(C)cc(C)cc1C.Cl" ; returns value.
stdout: 4

stdin: Param readout= Population Membrane Permeable-Phenotype (%); system= HEK-293T; entry= CC[C@@H]1C(=O)N(C)c2cnc(Nc3ccc(C(=O)NC4CCN(C)CC4)cc3OC)nc2N1C1CCCC1 [BI-2536] ; returns value.
stdout: 5

stdin: Param readout= Population Membrane Permeable-Phenotype (%); system= HEK-293T; entry= CCCCCNC(=N)N/N=C/c1c[nH]c2ccc(OC)cc12.O=C(O)/C=C\C(=O)O [TEGASEROD MALEATE] ; returns value.
stdout: 1

stdin: Param readout= Population Membrane Permeable-Phenotype (%); system= HEK-293T; entry= CC(Cc1ccc(O)c(O)c1)C(C)Cc1ccc(O)c(O)c1 (stereo not drawn) [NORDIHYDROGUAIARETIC ACID] ; returns value.
stdout: 1

stdin: Param readout= Population Membrane Permeable-Phenotype (%); system= HEK-293T; entry= "Cc1c(Nc2ccc(S(=O)(=O)N3CCN(C)CC3)cc2F)nc2ccc(-c3cnn(C4CC4)c3)cn2c1=O" ; returns value.
stdout: 8

stdin: Param readout= Population Membrane Permeable-Phenotype (%); system= HEK-293T; entry= "C=CC(=O)Nc1cc(-n2c(=O)ccc3cnc4ccc(-c5ccc(NS(C)(=O)=O)cc5)cc4c32)ccc1C" ; returns value.
stdout: 15

stdin: Param readout= Population Membrane Permeable-Phenotype (%); system= HEK-293T; entry= CC(C)[C@H](CO)Nc1nc(Nc2cccc(Cl)c2)c2ncn(C(C)C)c2n1 [PURVALANOLA] ; returns value.
stdout: 4

stdin: Param readout= Population Membrane Permeable-Phenotype (%); system= HEK-293T; entry= "Cc1c(Nc2ccc(S(=O)(=O)N3CCN(C)CC3)cc2F)nc2ccc(Nc3cnn(C4CC4)c3)cn2c1=O" ; returns value.
stdout: 21

----------
What Population Membrane Permeable-Phenotype (%) was measured for each of the following?
Test system: U2OS
Assay: Multiplex assay against U2OS
Assay type: toxicity, cell-based
Settings: human, 12 h, 1 µM, compound concentration 1 uM, replicate 1
Respond numerically; units are % and should not be typed.

stdin: Would you kindly share the measured Population Membrane Permeable-Phenotype (%) for CCOc1ccn(-c2ccc(F)cc2)c(=O)c1C(=O)Nc1ccc(Oc2ccnc(N)c2Cl)c(F)c1 [BMS-777607] ?
stdout: 35

stdin: Would you kindly share the measured Population Membrane Permeable-Phenotype (%) for "CCOC(=O)CCNc1cc(N2CCc3ccccc3CC2)nc(-c2ccccn2)n1" ?
stdout: 14

stdin: Would you kindly share the measured Population Membrane Permeable-Phenotype (%) for CC[C@H](Nc1ncnc2[nH]cnc12)c1nc2cccc(F)c2c(=O)n1-c1ccccc1 [IDELALISIB] ?
stdout: 47

stdin: Would you kindly share the measured Population Membrane Permeable-Phenotype (%) for "Cl.NC[C@@H]1O[C@H](C23CC4CC(CC(C4)C2)C3)Cc2c1ccc(O)c2O" ?
stdout: 5

stdin: Would you kindly share the measured Population Membrane Permeable-Phenotype (%) for "N#Cc1cccc(C(=O)Nc2cc(-c3ccccc3)nn2-c2ccccc2)c1" ?
stdout: 2

stdin: Would you kindly share the measured Population Membrane Permeable-Phenotype (%) for CC(C)[C@H](CO)Nc1nc(Nc2cccc(Cl)c2)c2ncn(C(C)C)c2n1 [PURVALANOLA] ?
stdout: 1

stdin: Would you kindly share the measured Population Membrane Permeable-Phenotype (%) for "CN(c1cc(C(F)(F)F)nc(OCCC(=O)O)n1)c1cccc2c1CCC2" ?
stdout: 8

stdin: Would you kindly share the measured Population Membrane Permeable-Phenotype (%) for "Cc1c(Nc2ccc(S(=O)(=O)N3CCN(C)CC3)cc2F)nc2ccc(Nc3cnn(C4CC4)c3)cn2c1=O" ?
stdout: 58

stdin: Would you kindly share the measured Population Membrane Permeable-Phenotype (%) for Oc1cccc(-c2nc(N3CCOCC3)c3oc4ncccc4c3n2)c1 [PI-103] ?
stdout: 8

----------
What Population Hoechst High Intensity Objects (%) was measured for each of the following?
Tested on: HEK-293T
Assay: Multiplex assay against HEK293T
Type: toxicity, cell-based
Settings: human, 12 h, 10 µM, compound concentration 10 uM, replicate 1

stdin: Would you kindly share the measured Population Hoechst High Intensity Objects (%) for "Cl.NC[C@@H]1O[C@H](C23CC4CC(CC(C4)C2)C3)Cc2c1ccc(O)c2O" ?
stdout: 16%

stdin: Would you kindly share the measured Population Hoechst High Intensity Objects (%) for CN1C(=O)[C@@H](NC(=O)c2cc3ccccc3[nH]2)N=C(c2ccccc2)c2ccccc21 [DEVAZEPIDE] ?
stdout: 15%

stdin: Would you kindly share the measured Population Hoechst High Intensity Objects (%) for "CCOC(=O)CCNc1cc(N2CCc3ccccc3CC2)nc(-c2ccccn2)n1" ?
stdout: 16%

stdin: Would you kindly share the measured Population Hoechst High Intensity Objects (%) for "CC[C@H](Nc1ncnc2[nH]cnc12)c1nc2cccc(F)c2c(=O)n1-c1ccccc1" ?
stdout: 9%

stdin: Would you kindly share the measured Population Hoechst High Intensity Objects (%) for "CCOc1ccn(-c2ccc(F)cc2)c(=O)c1C(=O)Nc1ccc(Oc2ccnc(N)c2Cl)c(F)c1" ?
stdout: 15%

stdin: Would you kindly share the measured Population Hoechst High Intensity Objects (%) for "CC(C)c1cc(Nc2nc(N3CCC[C@H](N)C3)ncc2C(N)=O)cc(C(C)C)n1" ?
stdout: 18%

stdin: Would you kindly share the measured Population Hoechst High Intensity Objects (%) for "NC(=O)c1ccc2nc(-c3ccc(C4(N)CCC4)cc3)c(-c3ccccc3)n2n1" ?
stdout: 15%

stdin: Would you kindly share the measured Population Hoechst High Intensity Objects (%) for CCCCCNC(=N)N/N=C/c1c[nH]c2ccc(OC)cc12.O=C(O)/C=C\C(=O)O [TEGASEROD MALEATE] ?
stdout: 27%

stdin: Would you kindly share the measured Population Hoechst High Intensity Objects (%) for "CC[C@@]1(O)C(=O)OCc2c1cc1n(c2=O)Cc2cc3ccccc3nc2-1" ?
stdout: 13%

stdin: Would you kindly share the measured Population Hoechst High Intensity Objects (%) for "Oc1cccc(-c2nc(N3CCOCC3)c3oc4ncccc4c3n2)c1" ?
stdout: 18%

stdin: Would you kindly share the measured Population Hoechst High Intensity Objects (%) for "CC(C)[C@H](CO)Nc1nc(Nc2cccc(Cl)c2)c2ncn(C(C)C)c2n1" ?
stdout: 12%

stdin: Would you kindly share the measured Population Hoechst High Intensity Objects (%) for "CC(/C=C1\SC(=S)N(CCCC(=O)Nc2ccc(C(=O)O)c(O)c2)C1=O)=C\c1ccccc1" ?
stdout: 13%

stdin: Would you kindly share the measured Population Hoechst High Intensity Objects (%) for "Cc1ccc(NC(=O)Nc2cc(C(F)(F)F)ccc2F)cc1Nc1ccc2c(c1)NC(=O)/C2=C\c1ccc[nH]1" ?
stdout: 6%

stdin: Would you kindly share the measured Population Hoechst High Intensity Objects (%) for "N#CCNC(=O)c1ccc(-c2ccnc(Nc3ccc(N4CCOCC4)cc3)n2)cc1" ?
stdout: 6%

stdin: Would you kindly share the measured Population Hoechst High Intensity Objects (%) for "CN(c1cc(C(F)(F)F)nc(OCCC(=O)O)n1)c1cccc2c1CCC2" ?
stdout: 16%

stdin: Would you kindly share the measured Population Hoechst High Intensity Objects (%) for "CC[C@@H]1C(=O)N(C)c2cnc(Nc3ccc(C(=O)NC4CCN(C)CC4)cc3OC)nc2N1C1CCCC1" ?
stdout: 11%

stdin: Would you kindly share the measured Population Hoechst High Intensity Objects (%) for CS(=O)(=O)N1CCCC(NC(=O)[C@H](CCC2CCCCC2)NC(=O)c2ccc(CNC(=O)c3cnc4ccccn34)cc2)C1 (stereo partly specified) ?
stdout: 16% [middle of 4 runs]

stdin: Would you kindly share the measured Population Hoechst High Intensity Objects (%) for "Cc1c(Nc2ccc(S(=O)(=O)N3CCN(C)CC3)cc2F)nc2ccc(Nc3cnn(C4CC4)c3)cn2c1=O" ?
stdout: 8%

stdin: Would you kindly share the measured Population Hoechst High Intensity Objects (%) for "CCCCN(CC)c1nc(C)nc2c1c(C)cn2-c1c(C)cc(C)cc1C.Cl" ?
stdout: 8%

stdin: Would you kindly share the measured Population Hoechst High Intensity Objects (%) for "Cc1ccc(S(=O)(=O)NC2c3ccccc3Oc3ccccc32)cc1" ?
stdout: 11%

stdin: Would you kindly share the measured Population Hoechst High Intensity Objects (%) for "c1ccc(-c2oc3ncnc(NC[C@@H]4CCCO4)c3c2-c2ccccc2)cc1" ?
stdout: 17%
